- Test system: TTR
- assay-notes: TTR editing in primary human hepatocytes transfected with Spy Cas9 mRNA and dgRNAs (Table 9)
- Type: cell-based
- study-conditions: dgRNA co-transfected with Spy Cas9 mRNA (SEQ ID NO:2)
Can you tell me Avg % Insert for the items I'm about to list?
Note: a bare number is incomplete; add the unit.

Could you share which Avg % Insert value was measured for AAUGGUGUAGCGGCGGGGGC (tested as dual guide RNA, chemistry not given here) [CR003375] ?
1.23%

Could you share which Avg % Insert value was measured for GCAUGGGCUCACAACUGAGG (tested as dual guide RNA, chemistry not given here) [CR003362] ?
6.17%

Could you share which Avg % Insert value was measured for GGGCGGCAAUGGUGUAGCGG (tested as dual guide RNA, chemistry not given here) [CR003379] ?
12.00%

Could you share which Avg % Insert value was measured for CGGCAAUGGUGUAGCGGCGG (tested as dual guide RNA, chemistry not given here) [CR003376] ?
2.73%

Entry source: patent US11795460B2
